All values here come from ChEMBL document CHEMBL1201862.

- Test system: SR
- measurement_protocol: NCI tumour cell line growth inhibition, 48 h
Calls of active or inactive are those of the source. Rule as the data show it: active = GI50 up to about 1.1 µM and inactive = higher.
assay_endpoint: GI50

> print(dat)
                                   compound  assay.endpoint          test.result
1  Cc1c(CCN2CCOCC2)c(N2CCOCC2)n2c(nc3ccccc32)c1C#N            GI50   > 10 µM (inactive)
2  C[N+](C)(C)CC(=O)NC(=O)N/N=C\C(CC#N)CN(Cc1ccccc1)Cc1ccccc1 (centres undefined)            GI50  > 100 µM (inactive)
3  COc1cc(Cl)c(CC(=O)c2c[nH]c3ccccc23)cc1OC            GI50  > 100 µM (inactive)
4  CC1CC2=C(S(=O)(=O)c3ccccc3)CC(S(=O)(=O)c3ccccc3)(S(=O)(=O)c3ccccc3)CC21 (centres undefined)            GI50  > 100 µM (inactive)

* * *

- Tested on: CAKI-1
- measurement_protocol: NCI tumour cell line growth inhibition, 48 h
Active and inactive are the calls of the source. Cut-off read from the data, not from the text of the source: active = GI50 up to about 1.1 µM and inactive = higher.
A collection of compounds and their measured GI50

compound	target	GI50
COc1ccc(-c2cc(=O)c3c(O)c(OC)c(O)cc3o2)cc1O	CAKI-1	13.9 µM (inactive)
OC1CCOc2ccccc21 (stereo not given)	CAKI-1	> 100 µM (inactive)
CCCCCCCC(=O)NC(C)(C)C(=O)NCC(=O)NC(CC(C)C)C(=O)NC(C)(C)C(=O)NCC(=O)NCC(=O)NC(CC(C)C)C(=O)NC(C)(C)C(=O)NCC(=O)NC(C(=O)NC(CO)CC(C)C)C(C)CC (stereo not given)	CAKI-1	4.12 µM (inactive)
CC(C)N1CC2CC(CN(C(=O)c3ccc(Cl)cc3)C2)C1	CAKI-1	> 100 µM (inactive)
CN(c1ccccc1Cl)S(=O)(=O)c1ccccc1	CAKI-1	> 100 µM (inactive)

* * *

- System: HL-60
- measurement_protocol: NCI tumour cell line growth inhibition, 48 h
The source made the active and inactive calls. Rule as the data show it: active = GI50 up to about 1.1 µM and inactive = higher.
Possible outcomes: 1 = active, -1 = inactive

> print(dat)
                                   compound  answer.label
1  COC1=C(C)C(=O)c2c(c(COC(N)=O)c3n2CC(OC(C)=O)C3OC(C)=O)C1=O (stereo not drawn)             1
2  NC(Cc1cc(Br)c(O)c(Br)c1)C(=O)O (stereo not drawn)            -1
3                        CN(C)/N=N/c1ccccc1            -1
4  c1ccc(COC2NCCN2Cc2ccccc2)cc1 (stereo not drawn)            -1
5           CC(=N\c1ccncc1)/C(C)=N/c1ccncc1            -1
6  CCOC(=O)NC/C=C/COC1CCCCO1 (stereo not drawn)            -1
7                  O=C1CCN2C(=N1)Sc1ccccc12            -1
8  COC(=O)C1C=CCON2CCc3c(n(S(=O)(=O)c4ccccc4)c4ccccc34)C12 (stereo not drawn)            -1

* * *

- Tested on: COLO 205
- measurement_protocol: NCI tumour cell line growth inhibition, 48 h
Calls of active or inactive are those of the source. No stated cut-off is given here; in the data, active = GI50 up to about 1.1 µM and inactive = higher.
A collection of compounds and their measured GI50
assay_endpoint: GI50

> print(dat)
                                   compound  assay.endpoint          test.result
1  O=[N+]([O-])c1ccc(Cl)c(C2CC(c3cccc4ccccc34)=Nc3ccccc3S2)c1 (stereo unspecified)            GI50   61.2 µM (inactive)
2  COC1=C(C)C(=O)c2c(c(COC(N)=O)c3n2CC(OC(C)=O)C3OC(C)=O)C1=O (stereo unspecified)            GI50    0.116 µM (active)
3   O=[N+]([O-])c1cc2oc(CSc3ccccc3)nc2cc1Cl            GI50   21.7 µM (inactive)
4  O=C1NC(O)CCN1C1OC(CO)C(O)C1O (stereo unspecified)            GI50  > 250 µM (inactive)
5  CC(C)(Cl)C(Br)CC/C(=C/CBr)CBr.CC(C)(Cl)C(Br)CC/C(=C\CBr)CBr (stereo unspecified)            GI50   2.32 µM (inactive)
6         FC(F)(F)c1ccc2nc(Sc3ccccn3)cnc2c1            GI50   53.2 µM (inactive)
